Can you tell me koff for the items I'm about to list?
# TARGET_DESC: T1, rhesus monkey ERBB3 His tag, monomeric (rhesus monkey (Macaca mulatta), UniProt P21860 20-643 (human entry), limits assumed)
# T1 chain: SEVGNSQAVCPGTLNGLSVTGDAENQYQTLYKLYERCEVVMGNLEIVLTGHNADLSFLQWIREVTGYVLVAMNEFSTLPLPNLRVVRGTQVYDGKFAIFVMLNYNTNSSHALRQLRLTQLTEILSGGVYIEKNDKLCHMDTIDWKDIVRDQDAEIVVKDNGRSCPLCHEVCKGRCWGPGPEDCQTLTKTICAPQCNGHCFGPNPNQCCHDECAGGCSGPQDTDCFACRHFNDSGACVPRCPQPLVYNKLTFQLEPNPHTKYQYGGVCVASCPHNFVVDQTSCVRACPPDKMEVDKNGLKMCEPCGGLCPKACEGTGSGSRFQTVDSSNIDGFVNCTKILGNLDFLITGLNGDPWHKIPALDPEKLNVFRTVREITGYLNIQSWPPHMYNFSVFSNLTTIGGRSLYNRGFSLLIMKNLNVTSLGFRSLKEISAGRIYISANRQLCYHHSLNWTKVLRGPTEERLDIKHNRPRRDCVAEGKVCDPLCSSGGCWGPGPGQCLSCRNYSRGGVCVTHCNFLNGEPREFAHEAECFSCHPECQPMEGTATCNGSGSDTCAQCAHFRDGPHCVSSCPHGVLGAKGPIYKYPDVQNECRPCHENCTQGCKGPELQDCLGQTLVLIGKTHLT
# TEST_SUMMARY: SPR (Biacore), captured IgG, monomeric ERBB3-His analyte
Just the number in s⁻¹, nothing appended.

Exercise: Param item = MH1 IgG1null (antibody, V domains shown, Designer (Maximally Humanized) clone; Human IgG1null and human Ckappa) VH: QVQLVESGGGLVKPGGSLRLSCAASGFTFSDYGMSWIRQAPGKGLEWVSTISDSGSYIYYADSVKGRFTISRDNAKNSLYLQMNSLRAEDTAVYYCARELGDYDGFDYWGQGTLVTVSS VL: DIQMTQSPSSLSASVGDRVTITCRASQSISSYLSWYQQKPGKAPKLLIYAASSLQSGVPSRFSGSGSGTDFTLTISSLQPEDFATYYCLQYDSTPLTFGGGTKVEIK ; retrieve measured koff.
Solution: 0.0056

Exercise: Again, but for MH4 IgG1null (antibody, V domains shown, Designer (Maximally Humanized) clone; Human IgG1null and human Ckappa) VH: QVQLVESGGGLVKPGGSLRLSCAASGFTFSDYGMSWIRQAPGKGLEWVSTISDSGSYIYYADSVKGRFTISRDNAKNSLYLQMNSLRAEDTAVYYCAREWGDYDGFDEWGQGTLVTVSS VL: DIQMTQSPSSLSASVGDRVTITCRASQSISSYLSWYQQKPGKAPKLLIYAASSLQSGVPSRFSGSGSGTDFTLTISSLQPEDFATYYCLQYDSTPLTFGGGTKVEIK
Solution: 0.0047

Exercise: Again, but for 09H02 IgG1null (antibody, V domains shown, Human IgG1null and human Ckappa; also called 09HO2) VH: QVQLVESGGGLVKPGGSLRLSCAASGFTFSDYSMSWIRQAPGKGLEWVSTISDGGSYTYYPDSVKGRFTISRDNAKNSLYLQMNSLRAEDTAVYYCARELGDYDGFDYWGQGTLVTVSS VL: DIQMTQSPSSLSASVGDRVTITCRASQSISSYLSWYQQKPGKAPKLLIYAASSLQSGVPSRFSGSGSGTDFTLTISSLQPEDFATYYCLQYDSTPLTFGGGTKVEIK
Solution: 0.0027

Exercise: Again, but for 15G11 IgG1null (antibody, V domains shown, Human IgG1null (L234A, L235A, G237A) and human Ckappa) VH: QVQLVESGGGLVKPGGSLRLSCAASGFTFSDYGMSWIRQAPGKGLEWVSTISDSGSYTYYPDSVKGRFTISRDNAKNSLYLQMNSLRAEDTAVYYCARELGDYDGFDYWGQGTLVTVSS VL: DIQMTQSPSSLSASVGDRVTITCRASQEISSYLSWYQQKPGKAPKLLIYAASSLDSGVPSRFSGSGSGTDFTLTISSLQPEDFATYYCLQYDSTPYTFGGGTKVEIK
Solution: 0.0011

Exercise: Again, but for MH5 IgG1null (antibody, V domains shown, Designer (Maximally Humanized) clone; Human IgG1null and human Ckappa) VH: QVQLVESGGGLVKPGGSLRLSCAASGFTFSDYGMSWIRQAPGKGLEWVSTISDSGSTIYYADSVKGRFTISRDNAKNSLYLQMNSLRAEDTAVYYCAREYGDYDGFDYWGQGTLVTVSS VL: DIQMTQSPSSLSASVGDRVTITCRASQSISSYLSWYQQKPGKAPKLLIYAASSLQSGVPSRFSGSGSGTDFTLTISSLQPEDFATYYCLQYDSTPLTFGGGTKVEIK
Solution: 0.006
